Protocol Text: Cmax in Sprague-Dawley rat at 10 mg/kg, po
Type: ADME, organism-based
Parameters: dose 10 mg/kg, route oral
Condition Summary: in vivo
Quantity Name: Cmax (nM)
The reply should be a number in nM, with the unit left off.

[ask] What Cmax value was documented for this compound, COc1ccc2c(O[C@@H]3C[C@H]4C(=O)N[C@]5(C(=O)NS(=O)(=O)C6CC6)C[C@H]5/C=C\CCCCCNC(=O)N4C3)cc(-c3nc(C(C)C)cs3)nc2c1 ?
[reply] 950

[ask] Please look up its Cmax: COc1ccc2c(O[C@@H]3C[C@H]4C(=O)N[C@]5(C(=O)NS(=O)(=O)C6CC6)C[C@H]5/C=C\CCCCN(C)C(=O)N4C3)cc(-c3nc(C(C)C)cs3)nc2c1
[reply] 730

[ask] Name the reported Cmax value associated with the compound COc1ccc2c(O[C@@H]3C[C@H]4C(=O)N[C@]5(C(=O)NS(=O)(=O)C6CC6)C[C@H]5/C=C\CCCCNC(=O)N4C3)cc(-c3nc(C(C)C)cs3)nc2c1
[reply] 26

[ask] // query Cmax value for entry COc1ccc2c(O[C@@H]3C[C@H]4C(=O)N[C@]5(C(=O)NS(=O)(=O)C6(C)CC6)C[C@H]5/C=C\CCCCCNC(=O)N4C3)cc(-c3nc(C(C)C)cs3)nc2c1
[reply] 1710

Source: ChEMBL document CHEMBL1152293
